Test: Counterscreen qHTS for small molecule stabilizers of the endoplasmic reticulum resident proteome: GLuc-NoTag assay (AID 1508627)
Conditions: Gaussia luciferase NoTag secretion counterscreen, luminescence, thapsigargin 100 nM for final 4 h; series mostly up to 76.4 µM
Results filed as inconclusive are left out. Active and inactive are the calls of the source. The call rests on the fitted dose curve; in most records, active means well fitted inhibition curve with a large enough effect; inconclusive means small, poorly fitted or top-dose-only effect; inactive means no such curve, though single readings can be large or run the other way.
Labels: Yes = active, No = inactive

>>> label("C=C[C@H]1CN2CCC1C[C@@H]2C(O)c1ccnc2ccc(OC)cc12 (stereo not given in full)")
"No"
>>> label("Oc1ccc(Nc2nc(-c3ccc(Cl)cc3)cs2)cc1")
"No"
>>> label("c1ncc(CCCC2CCNCC2)[nH]1")
"No"
>>> label("CN(C)c1ccc(/C=C2/C(=O)Nc3ccccc32)cc1")
"Yes"
>>> label("CCOC(=O)NC[C@H](Cc1ccc(OCCc2nc(-c3ccccc3)oc2C)cc1)N/C(C)=C\\C(=O)c1ccc(C(F)(F)F)cc1")
"No"
>>> label("N#Cc1cc2c(OCC(O)CN3CCN(C(c4ccccc4)c4ccccc4)CC3)cccc2[nH]1 (stereo not given)")
"No"
>>> label("CC(C)N1CCN(c2ccc(C(=O)c3c(-c4ccc(O)cc4)sc4cc(O)ccc34)cc2)CC1")
"No"
>>> label("COc1ccc(NC(=O)c2cc(OCCCN(C)C)nn2Cc2ccccc2)cc1")
"No"
>>> label("COc1ccc(CCN(C)CCC[C@@](C#N)(c2ccc(OC)c(OC)c2)C(C)C)cc1OC")
"No"
>>> label("CCCCCCCCCCCCCCCC(=O)OC(CO)CO")
"No"
>>> label("CNc1cc2c(Nc3cccc(Br)c3)ncnc2cn1")
"Yes"
>>> label("CN1CCN(C2=Cc3ccccc3Oc3ccc(Cl)cc32)CC1")
"No"
>>> label("C[C@@H]([C@H](O)c1ccc(O)cc1)N1CCC(Cc2ccccc2)CC1")
"No"
>>> label("O=C(O)C1NCCN(C(=O)c2ccc3c(ccc4ccccc43)c2)C1C(=O)O (stereo not given)")
"No"
>>> label("CC(C)ON(C(C(=O)NO)C(C)C)S(=O)(=O)c1ccc(-c2ccccc2)cc1 (stereo not given)")
"No"
>>> label("COc1ccc(C2Sc3ccccc3N(CCN(C)C)C(=O)[C@@H]2OC(C)=O)cc1 (stereo not given in full)")
"No"
>>> label("COc1ccc2c3c1O[C@H]1C[C@H](O)C=C[C@@]31CCN(C)C2")
"No"
>>> label("Oc1cc2c(cc1O)[C@H](c1ccccc1)CNCC2")
"No"
>>> label("O=Nc1c(-c2c(O)[nH]c3ccccc23)[nH]c2ccccc12")
"Yes"
>>> label("NCCOB(c1ccccc1)c1ccccc1")
"No"
